Molecular target: hPXR (Homo sapiens)
Sequence (O75469 whole entry): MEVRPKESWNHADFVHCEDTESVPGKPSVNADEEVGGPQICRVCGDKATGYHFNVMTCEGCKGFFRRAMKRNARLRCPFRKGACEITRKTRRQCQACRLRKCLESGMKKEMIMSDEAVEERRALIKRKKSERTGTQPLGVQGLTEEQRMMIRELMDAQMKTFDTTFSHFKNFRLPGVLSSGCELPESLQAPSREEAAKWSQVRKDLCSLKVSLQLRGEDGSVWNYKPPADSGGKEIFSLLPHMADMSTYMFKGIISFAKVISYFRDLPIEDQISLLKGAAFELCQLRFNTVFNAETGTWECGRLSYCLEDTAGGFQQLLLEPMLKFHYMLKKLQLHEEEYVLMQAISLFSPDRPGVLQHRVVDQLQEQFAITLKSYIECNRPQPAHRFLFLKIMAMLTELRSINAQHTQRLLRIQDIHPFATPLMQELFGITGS
Assay: CYP3A4 promoter luciferase reporter assay in HepG2 cells
Settings: HepG2, LS180 and LS174T cells, 24 h
readout-label: activation of PXR-regulated CYP3A4 promoter activity

NS(=O)(=O)c1cc2c(cc1C(F)(F)F)NC(Cc1ccccc1)NS2(=O)=O (stereo not drawn) [bendroflumethiazide]
inactive
NS(=O)(=O)c1cc2c(cc1Cl)N=C(CSCc1ccccc1)NS2(=O)=O [benzthiazide]
inactive
NS(=O)(=O)c1cc2c(cc1Cl)NCNS2(=O)=O [hydrochlorothiazide]
inactive
